Tested on: Plasmodium falciparum
Assay: Antimalarial activity against Sulfadoxine-resistant Plasmodium falciparum 3D7
Assay type: functional, organism-based
pIC50: −log10 of the molar value.
readoutType: pIC50

Challenge: Form field: pIC50 recorded for `Cc1cccc([C@]23CC[C@](c4cccc(C)c4)(OO2)[C@H]2O[C@H]23)c1` with Plasmodium falciparum (enter value)
Response given: < 5.00

Challenge: Enter reported pIC50 observed with Plasmodium falciparum for `CC(C)[C@@]12CC[C@@](C)(OO1)[C@@H]1O[C@@H]12`
Response given: < 5.00

Challenge: Short answer please: pIC50, Plasmodium falciparum, entry `Fc1ccc([C@]23CC[C@](c4ccc(F)cc4)(OO2)[C@H]2O[C@H]23)cc1`
Response given: < 5.00

* * *

Biological target: Aromatase (Homo sapiens)
Sequence (P11511 whole entry): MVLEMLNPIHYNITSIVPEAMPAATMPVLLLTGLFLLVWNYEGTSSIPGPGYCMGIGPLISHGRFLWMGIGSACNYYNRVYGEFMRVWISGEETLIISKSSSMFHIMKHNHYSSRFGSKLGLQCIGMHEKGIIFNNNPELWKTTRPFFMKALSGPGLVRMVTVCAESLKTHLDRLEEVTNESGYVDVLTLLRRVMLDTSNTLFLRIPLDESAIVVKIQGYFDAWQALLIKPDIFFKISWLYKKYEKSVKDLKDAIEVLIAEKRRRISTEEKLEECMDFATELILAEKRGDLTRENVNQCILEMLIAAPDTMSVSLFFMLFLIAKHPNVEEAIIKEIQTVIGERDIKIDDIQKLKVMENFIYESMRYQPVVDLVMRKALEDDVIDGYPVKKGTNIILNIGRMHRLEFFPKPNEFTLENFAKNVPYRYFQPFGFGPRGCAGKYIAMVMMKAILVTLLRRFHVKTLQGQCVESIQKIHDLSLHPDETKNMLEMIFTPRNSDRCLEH
Experiment: Inhibition of aromatase in disrupted human MCF-7aro cells using [1beta-3H] androstenedione as substrate incubated for 1 hrs in the presence of NADPH
readoutType: pIC50
In textbook form, pIC50 equals minus log to base ten of the concentration in mol/L.

Challenge: What does the data say about its pIC50? Entry: `C[C@]12CC[C@H]3[C@@H](CC[C@@]45O[C@@H]4CCC[C@]35C)[C@@H]1CCC2=O`
Response given: 5.92

* * *

Assay: Cytotoxicity against HUVEC cells assessed as inhibition of cell growth incubated for 72 hrs by MTT assay
Type: toxicity, cell-based, Homo sapiens
Settings: human, HUVEC cells
readoutType: IC50 at 72 h (µM)
The answer is to be given in µM; state only the numeric part.

Challenge: Please report the recorded IC50 at 72 h for CC(C)=CCCC1(C)OC1C=O (stereo in doubt; 10b) .
Response given: 162

* * *

System: NCI-H460
Assay: Antiproliferative activity against human NCI-H460 cells assessed as reduction in cell viability incubated for 72 hrs by MTT assay
Format: functional, cell-based
Conditions: NCI-H460, 72 h
readoutType: pIC50
A value of pIC50 is the negative decimal logarithm of a concentration given in moles per litre.

Challenge: Please state recorded pIC50 (tested on NCI-H460) of CC(=O)O[C@H]1[C@H]2O[C@]23[C@@H]2CC[C@@H]4C[C@@H](O)CC[C@]4(C)[C@H]2CC[C@]3(C)[C@H]1c1ccc(=O)oc1 [CINOBUFAGIN]
Response given: 5.64

* * *

Tested on: DU-145
Test: Antiproliferative activity against human DU-145 cells assessed as reduction in cell viability incubated for 48 hrs by CytoX cell viability assay
Type: functional, cell-based
Settings: DU-145, 48 h
Classify on IC50 using 0 = under 8 µM, 1 = from 8 µM up to 20 µM, 2 = 20 µM and over

Challenge: Class (by measured IC50) for `CC[C@@]1(O)C(=O)OCc2c1cc1n(c2=O)Cc2cc3ccccc3nc2-1`
Response given: 0

Challenge: Dear colleague, I would appreciate it if you could identify the bin for `Cc1cc(=O)c2c(OC[C@H]3CO3)cc(OC[C@H]3CO3)cc2o1` and reply at your convenience.
Response given: 1

Challenge: Note: place this compound into its band. Item: Cc1cc(=O)c2c(OCC3CO3)cc(OCC3CO3)cc2o1 (centres undefined)
Response given: 0

Challenge: # classify by IC50 band: `Cc1cc(=O)c2c(OC[C@@H]3CO3)cc(OC[C@@H]3CO3)cc2o1`
Response given: 2

Challenge: Bin? Cc1cc(=O)c2c(O)cc(OCC3CO3)cc2o1 (centres undefined)
Response given: 2

Challenge: For this compound, which bin applies? `Cc1cc(=O)c2c(O)cc(OC[C@@H]3CO3)cc2o1`
Response given: 0

Challenge: Assign a category based on measured IC50 for `Cc1cc(=O)c2c(O)cc(OC[C@H]3CO3)cc2o1` and give only the class name.
Response given: 1

Challenge: Which bin, given its IC50, does `Cc1cc(=O)c2c(OC[C@H]3CO3)cc(OC[C@@H]3CO3)cc2o1` occupy?
Response given: 2

* * *

Would you mind telling me the reported IC50 of each entry?
System: Plasmodium falciparum
Assay: Antimalarial activity against […] incubated for 48 hrs
Assay type: functional, organism-based
Conditions: K1, 48 h
The reply should be a number in nM, with the unit left off.

Challenge: Name the reported IC50 value associated with the compound `Fc1ccc([C@]23CC[C@](c4ccc(F)cc4)(OO2)[C@H]2O[C@H]23)cc1`
Response given: 80

Challenge: Please report the recorded IC50 for `Cc1cccc([C@]23CC[C@](c4cccc(C)c4)(OO2)[C@H]2O[C@H]23)c1` .
Response given: 80

Challenge: Field request: IC50 | item: `CC(C)[C@@]12CC[C@@](C)(OO1)[C@@H]1O[C@@H]12`
Response given: 80

* * *

Test system: NCI-H1299
Assay: Antiproliferative activity against human NCI-H1299 cells assessed as inhibition of cell proliferation incubated for 4 days by MTT assay
Assay type: functional, cell-based
Details: NCI-H1299, 96 h
readoutType: pIC50
Field pIC50 (float): negative decimal logarithm of the concentration in molar.

Challenge: Observed pIC50 on NCI-H1299 for CC1(C)NC(=O)[C@@H](CCCCCC(=O)[C@@H]2CO2)NC(=O)CC2CCCN2C(=O)[C@@H](Cc2ccccc2)NC1=O (stereo partly specified) , please.
Response given: 8.40

* * *

Tested on: Hyalomma lusitanicum
Assay: Anti-insecticidal activity against Hyalomma lusitanicum Koch larvae assessed as inhibition of larval growth
Type: functional
Conditions: Hyalomma lusitanicum; read-out: LD50 (the source's name)
For each entry below, report its LC50 value.
The answer should read as a number with its unit following.

Challenge: # get_value(readout='LC50', item= CC(C)=C1C/C=C(\C)CCCC2(C)OC2C1=O (configuration not stated) )
Response given: 2320 µg/mL

Challenge: Name the recorded LC50 for `CC(C)=C1C/C=C(\C)CC/C=C(\C)CC1=O` .
Response given: 1080 µg/mL

Challenge: Returns the measured LC50 for the input molecule. Input: `CC(C)=C1C/C=C(\C)CC[C@H]2O[C@@]2(C)CC1=O`
Response given: 2700 µg/mL

Challenge: // returns reported LC50 for input C/C1=C\CC2(OC2(C)C)C(=O)C/C(C)=C/CC1 (configuration not stated)
Response given: 1210 µg/mL

Challenge: Look at this molecule and give its reported LC50. `CC(C)=C1C[C@H]2O[C@@]2(C)CC/C=C(\C)CC1=O`
Response given: 1470 µg/mL

Challenge: Quick one: LC50 of CC1=CCC[C@]2(C)CC(=O)C3(C[C@@H]12)OC3(C)C (some centres not stated) ?
Response given: 230 µg/mL

Challenge: Find the recorded LC50 belonging to CC1=C2CC3(OC3(C)C)C(=O)C[C@@]2(C)CCC1 (some centres not stated) and report it.
Response given: 4140 µg/mL

* * *

Tested on: SK-MES-1
Assay: Antiproliferative activity against human SK-MES-1 cells assessed as reduction in cell viability incubated for 72 hrs by MTT assay
Format: functional, cell-based
Details: SK-MES-1, 72 h
readoutType: pIC50
# pIC50 is unitless: minus log10 of the molar concentration; print number only

Challenge: Quick one: pIC50 for `CC(=O)O[C@H]1[C@H]2O[C@]23[C@@H]2CC[C@@H]4C[C@@H](O)CC[C@]4(C)[C@H]2CC[C@]3(C)[C@H]1c1ccc(=O)oc1` ?
Response given: 5.64

* * *

System: A549
Assay: Antiproliferative activity against human A549 cells assessed as reduction in cell viability incubated for 72 hrs by MTT assay
Assay type: functional, cell-based
Settings: A549, 72 h
readoutType: pIC50
// pIC50 is dimensionless: -log10 of concentration (M)

Challenge: Please give the measured pIC50 for this compound: `CC(=O)O[C@H]1[C@H]2O[C@]23[C@@H]2CC[C@@H]4C[C@@H](O)CC[C@]4(C)[C@H]2CC[C@]3(C)[C@H]1c1ccc(=O)oc1`
Response given: 5.64

Values compiled from ChEMBL document CHEMBL5233251.
